Test: 384-well plate pilot, post-Golgi transport modulator project, inhibition of yeast transport mutant growth (AID 636); further: test concentration not given here
Conditions: absorbance 615 nm, about 18 h, stronger effect = higher value
value.kind: inhibition (%)

>  <compound>
Cc1cc(NC(=O)c2ccccc2)ncc1NC(=O)c1ccco1

>  <value.kind>
inhibition

>  <observed>
-4.42

$$$$
>  <compound>
CC1CCN(S(=O)(=O)c2ccc(Br)s2)CC1

>  <value.kind>
inhibition

>  <observed>
-2.6

$$$$
>  <compound>
Cc1c(NC(=O)c2ccc(=O)oc2)c(=O)n(-c2ccccc2)n1C

>  <value.kind>
inhibition

>  <observed>
-4.8

$$$$
>  <compound>
OCCNC1=NCCN1

>  <value.kind>
inhibition

>  <observed>
-7.4

$$$$
>  <compound>
c1ccc2c(c1)c1c3n2CCNC3CCC1 (stereo not drawn)

>  <value.kind>
inhibition

>  <observed>
-4.13

$$$$
>  <compound>
CCCC(C)C1C(C#N)=C(N)Oc2cc(C)oc(=O)c21 (stereo not drawn)

>  <value.kind>
inhibition

>  <observed>
-2.5

$$$$
>  <compound>
CN1CCN(S(=O)(=O)c2ccc(NC(=O)Nc3cccc(Cl)c3)cc2)CC1

>  <value.kind>
inhibition

>  <observed>
-3.6

$$$$
>  <compound>
CCSc1nnc(NC(=O)c2ccccn2)s1

>  <value.kind>
inhibition

>  <observed>
4.03

$$$$
>  <compound>
Cn1cc(C(=O)NC2CCCCCCC2)c(=O)c2cc(S(=O)(=O)N3CCCC3)ccc21

>  <value.kind>
inhibition

>  <observed>
-5.95

$$$$
>  <compound>
CC(=O)Oc1cccc2c1C(=O)c1c(OC(C)=O)cc(C(=O)O)cc1C2=O

>  <value.kind>
inhibition

>  <observed>
4.16

$$$$
>  <compound>
Cn1c(=O)c2c(nc(NCCNC(=O)c3ccco3)n2Cc2ccccc2Cl)n(C)c1=O

>  <value.kind>
inhibition

>  <observed>
-7.57

$$$$
>  <compound>
Cn1c(=O)[nH]c(=O)c2c1nc(N1CCc3ccccc3C1)n2CCSc1nc2ccccc2s1

>  <value.kind>
inhibition

>  <observed>
-5.48

$$$$
>  <compound>
C=CCN(CC=C)C(=O)c1ccncc1

>  <value.kind>
inhibition

>  <observed>
0.68

$$$$
>  <compound>
CCOC(=O)c1oc2cc(OCC(N)=O)ccc2c(=O)c1-c1ccc(OC)c(OC)c1

>  <value.kind>
inhibition

>  <observed>
-7.67

$$$$
>  <compound>
CC(C)CCNC(=O)NC(=O)CSc1nnc(-c2ccccc2F)n1N

>  <value.kind>
inhibition

>  <observed>
8.03

$$$$
>  <compound>
Nc1ncnc2c1ncn2[C@@H]1O[C@H](CO)[C@@H](O)[C@H]1O

>  <value.kind>
inhibition

>  <observed>
-2.47

$$$$
>  <compound>
CCOC(=O)Cc1nnc(Nc2cccc(O)c2)c2ccccc12

>  <value.kind>
inhibition

>  <observed>
-3.65

$$$$
>  <compound>
COc1ccccc1C(=O)N1CCN(CCc2ccccc2)CC1

>  <value.kind>
inhibition

>  <observed>
0

$$$$
>  <compound>
Cc1ccc2c(c1)CCCN2C(=O)c1ccc2c(c1)OCO2

>  <value.kind>
inhibition

>  <observed>
-8.63

$$$$
>  <compound>
CCOc1ccc(NC(=O)CN2CCN(CC(=O)c3ccc(OCC)cc3)CC2)cc1

>  <value.kind>
inhibition

>  <observed>
-4.87

$$$$
>  <compound>
CC(Oc1ccccc1)C(=O)Nc1ccc(S(=O)(=O)NCC2CCCO2)cc1 (stereo not drawn)

>  <value.kind>
inhibition

>  <observed>
-1.73

$$$$
>  <compound>
Cc1cc(NS(=O)(=O)c2ccc(N)cc2)no1

>  <value.kind>
inhibition

>  <observed>
1.56

$$$$
>  <compound>
COc1cc(C2C(C#N)=C(C)NC3=C2C(=O)CC(C)(C)C3)ccc1O (stereo not drawn)

>  <value.kind>
inhibition

>  <observed>
-6.13

$$$$
>  <compound>
O=S(=O)(c1cccc2cnccc12)N1CCCNCC1

>  <value.kind>
inhibition

>  <observed>
-2.08

$$$$
>  <compound>
COc1ccc(-c2nnn(CCc3nn[nH]n3)n2)cc1OC

>  <value.kind>
inhibition

>  <observed>
-3.6

$$$$
>  <compound>
CC(=O)OC(C)C[N+](C)(C)C (stereo not drawn)

>  <value.kind>
inhibition

>  <observed>
-5.97

$$$$
>  <compound>
Nn1c(SCC(=O)NC2CCCCC2)nnc1-c1ccc(Cl)cc1

>  <value.kind>
inhibition

>  <observed>
-6.16

$$$$
>  <compound>
O=C(CSc1nc2c(sc3ccccc32)c(=O)n1Cc1ccco1)NCC1CCCO1 (stereo not drawn)

>  <value.kind>
inhibition

>  <observed>
-1.17

$$$$
>  <compound>
COc1ccc(OC)c2[nH]c(=O)c(CCNC(=O)CC(C)C)cc12

>  <value.kind>
inhibition

>  <observed>
-8.77

$$$$
>  <compound>
CC(=O)OCC(=O)[C@H]1CC[C@H]2[C@@H]3CC=C4C[C@@H](O)CC[C@]4(C)[C@H]3CC[C@]12C

>  <value.kind>
inhibition

>  <observed>
-0.65

$$$$
>  <compound>
NS(=O)(=O)c1cc2c(cc1Cl)NCNS2(=O)=O

>  <value.kind>
inhibition

>  <observed>
0.65

$$$$
>  <compound>
Clc1cccc(-c2nn3c(Cn4cnc5ccccc54)nnc3s2)c1

>  <value.kind>
inhibition

>  <observed>
0.92

$$$$
>  <compound>
Cn1c(=O)c2c(nc(CN3CCCCC3)n2CCCc2ccccc2)n(C)c1=O

>  <value.kind>
inhibition

>  <observed>
-1.3

$$$$
